- Tested on: MDA-MB-435
- method: NCI tumour cell line growth inhibition, 48 h
# TGI values compiled below

Worked examples follow.
Fill in the recorded TGI for this compound, with MDA-MB-435 as test system: C/C=C1/CN2CCC34c5ccccc5N(C)C23C2CC1C4(C(=O)OC)C(O)O2 (stereo not drawn) > 100 µM

Also CC(C)[Si](OC1=C(C(=O)N(C)c2ccccc2Cl)CCCCC1)(C(C)C)C(C)C , if possible. > 100 µM

Also COc1cc(/C=C2\C(=O)N(c3ccccc3)c3ccccc32)cc(OC)c1OC , if possible. 36.6 µM

Also CCOC(=O)c1nnsc1NN=C(C)C , if possible. > 100 µM

Also O=S(=O)(CCNCc1ccc(-c2ccc3ncnc(Nc4ccc(OCc5cccc(F)c5)c(Cl)c4)c3c2)o1)c1ccccc1 , if possible. > 25 µM

Also CC(C)NC(=O)OCc1c(COC(=O)NC(C)C)c(-c2ccc(Cl)c(Cl)c2)n2c1CCC2 , if possible. > 100 µM

Also O=c1c2cc(-c3ccccc3)cnc2sn1-c1ccc(Oc2ccccc2)cc1 , if possible. > 100 µM

Lab note: next compound to report on.
Fill in the recorded TGI for this compound, with MDA-MB-435 as test system: CC(=O)OC1Oc2cc(C)c(C)cc2-c2oc(=O)c(-c3ccc(F)cc3)cc21 (stereo not drawn) 4.21 µM
